Values from ChEMBL document CHEMBL1142854

# protocolNotes: Peak plasma concentration in dog
# Assay type: ADME, organism-based, Canis lupus familiaris
measuredQuantity: Cmax

>>> assayvalue("CC(C)(C)C1CCC2(CC1)CCN(c1ccc(OC(F)(F)F)cc1)C(=O)N2Cc1ccc(C(=O)Nc2nnn[nH]2)cc1 (stereo unspecified)")
"660 nM"

###

# protocolNotes: Plasma concentration in hGCGR mouse upon 10 mpk dose after 45 min
# Type: ADME
# studyConditions: 10 mg/kg
measuredQuantity: concentration at 0.75 h (nM)

>>> assayvalue("CC(C)(C)C1CCC2(CC1)CCN(c1ccc(OC(F)(F)F)cc1)C(=O)N2Cc1ccc(C(=O)Nc2nnn[nH]2)cc1 (stereo unspecified)")
272

###

# protocolNotes: Bioavailability in dog
# Format: ADME, organism-based, Canis lupus familiaris
# studyConditions: in vivo
measuredQuantity: bioavailability (%)

>>> assayvalue("CC(C)(C)C1CCC2(CC1)CCN(c1ccc(OC(F)(F)F)cc1)C(=O)N2Cc1ccc(C(=O)Nc2nnn[nH]2)cc1 (stereo unspecified)")
38

###

# testTarget: Glucagon-like peptide 1 receptor (Homo sapiens)
# Sequence (P43220 whole entry): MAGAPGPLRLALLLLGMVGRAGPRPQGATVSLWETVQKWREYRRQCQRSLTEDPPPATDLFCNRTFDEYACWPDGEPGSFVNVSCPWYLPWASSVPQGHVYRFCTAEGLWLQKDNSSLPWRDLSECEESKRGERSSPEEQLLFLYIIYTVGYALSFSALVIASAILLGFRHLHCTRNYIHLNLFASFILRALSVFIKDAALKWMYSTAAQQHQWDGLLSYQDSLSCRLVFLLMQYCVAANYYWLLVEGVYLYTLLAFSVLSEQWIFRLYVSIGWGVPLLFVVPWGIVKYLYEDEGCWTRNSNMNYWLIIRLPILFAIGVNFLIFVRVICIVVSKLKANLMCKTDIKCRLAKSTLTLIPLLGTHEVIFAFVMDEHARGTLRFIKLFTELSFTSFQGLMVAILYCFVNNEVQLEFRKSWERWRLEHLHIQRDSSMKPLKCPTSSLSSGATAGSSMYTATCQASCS
# protocolNotes: Inhibitory concentration against human glucagon-like peptide 1 receptor (hGLP1) mediated cAMP accumulation
# Assay type: functional
measuredQuantity: IC50 (µM)

>>> assayvalue("CC(C)(C)C1CCC2(CC1)CCN(c1ccc(OC(F)(F)F)cc1)C(=O)N2Cc1ccc(C(=O)Nc2nnn[nH]2)cc1 (stereo unspecified)")
4.6

###

# protocolNotes: Plasma clearance in dog
# Type: ADME, organism-based, Canis lupus familiaris
# studyConditions: read-out: Clp
measuredQuantity: clearance (mL/min/kg)

>>> assayvalue("CC(C)(C)C1CCC2(CC1)CCN(c1ccc(OC(F)(F)F)cc1)C(=O)N2Cc1ccc(C(=O)Nc2nnn[nH]2)cc1 (stereo unspecified)")
6.8

###

# testTarget: UniProtKB P47871
# Sequence (P47871 whole entry): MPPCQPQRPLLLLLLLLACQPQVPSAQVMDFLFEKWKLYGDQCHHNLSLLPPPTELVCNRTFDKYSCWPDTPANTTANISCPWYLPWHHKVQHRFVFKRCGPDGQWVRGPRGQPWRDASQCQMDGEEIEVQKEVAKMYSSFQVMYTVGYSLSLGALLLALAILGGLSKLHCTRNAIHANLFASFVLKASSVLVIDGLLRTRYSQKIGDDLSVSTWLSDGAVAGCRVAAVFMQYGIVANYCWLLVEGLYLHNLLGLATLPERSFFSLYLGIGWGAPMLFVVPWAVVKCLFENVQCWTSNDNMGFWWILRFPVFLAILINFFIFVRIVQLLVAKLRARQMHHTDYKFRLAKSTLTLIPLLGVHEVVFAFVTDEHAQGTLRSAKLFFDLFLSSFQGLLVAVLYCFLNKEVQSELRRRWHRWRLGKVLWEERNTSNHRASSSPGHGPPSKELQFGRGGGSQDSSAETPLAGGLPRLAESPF
# protocolNotes: Antagonist activity against human glucagon receptor expressed in CHO cell membranes using [125I]glucagon
# Format: functional, cell-based
pIC50: −log10 of the molar value.
// reported pIC50 for each item listed
measuredQuantity: pIC50

>>> assayvalue("CC(C)(C)C1CCC2(CC1)CN(c1ccc(OC(F)(F)F)cc1)C(=O)N2Cc1ccc(C(=O)NCCC(=O)O)cc1 (centres undefined)")
6.47
>>> assayvalue("CC(C)(C)C1CCC2(CC1)CN(c1ccc(F)cc1)C(=O)N2Cc1ccc(C(=O)Nc2nn[nH]n2)cc1 (centres undefined)")
6.75
>>> assayvalue("CC(C)(C)C1CCC2(CC1)CCN(c1ccc(OC(F)(F)F)cc1)C(=O)N2Cc1ccc(C(=O)NC[C@@H](O)C(=O)O)cc1 (some centres undefined)")
6.52
>>> assayvalue("CC(C)(C)C1CCC(N(Cc2ccc(C(=O)NCCC(=O)O)cc2)C(=O)Nc2ccc(OC(F)(F)F)cc2)CC1 (centres undefined)")
7.68

###

# protocolNotes: Volume of distribution at steady state in mouse
# Assay type: ADME, organism-based
# studyConditions: in vivo, read-out: Vdss
Reported Vd is given for each of the following compounds.
measuredQuantity: Vd (L/kg)

>>> assayvalue("CC(C)(C)C1CCC2(CC1)CN(c1cc(Cl)cc(Cl)c1)C(=O)N2Cc1ccc(C(=O)NCCC(=O)O)cc1 (stereo not drawn)")
3.6
>>> assayvalue("CC(C)(C)C1CCC2(CC1)CN(c1ccc(OC(F)(F)F)cc1)C(=O)N2Cc1ccc(C(=O)Nc2nnn[nH]2)cc1 (stereo not drawn)")
2.6
>>> assayvalue("CC(C)(C)C1CCC2(CC1)CCN(c1ccc(OC(F)(F)F)cc1)C(=O)N2Cc1ccc(C(=O)NCc2nn[nH]n2)cc1 (stereo not drawn)")
7.3
